assaySummary: Cytotoxicity against human HepG2 cells assessed as inhibition of cell viability
Type: toxicity, cell-based
pIC50: −log10 of the molar value.
measuredEndpoint: pIC50

Solved cases (3 shown):
{"compound": "O=C(O)c1ccc(NC(=O)c2cccc(C(F)(F)F)n2)cc1", "measured": "< 3.61"}
{"compound": "O=C(O)c1ccc(NC(=O)c2ccc(Cl)nc2)cc1", "measured": "< 3.60"}
{"compound": "CO[C@H]1/C=C/O[C@@]2(C)Oc3c(C)c(O)c4c(O)c(c(/C=N/N5CCN(C)CC5)c(O)c4c3C2=O)NC(=O)/C(C)=C\\C=C\\[C@H](C)[C@H](O)[C@@H](C)[C@@H](O)[C@@H](C)[C@H](OC(C)=O)[C@@H]1C [RIFAMPIN]", "measured": "< 3.30"}

Entry "Cc1cc(C(=O)Nc2cnccn2)cc(Cl)n1" ; pIC50 = < 3.60

Entry NNC(=O)c1ccncc1 [ISONIAZID] ; pIC50 = < 3.00

Entry "Cc1cc(C(=O)Nc2ccc(C(=O)O)c(O)c2)cc(Cl)n1" ; pIC50 = < 3.00

Entry "O=C(Nc1ccc(C(=O)O)c(O)c1)c1cccc(Cl)n1" ; pIC50 = < 3.00

Entry "O=C(O)c1ccc(NC(=O)c2ccccn2)cc1" ; pIC50 = < 3.60

Entry "O=C(Nc1cnccn1)c1ccc2ccccc2n1" ; pIC50 = < 4.00

Entry "Cc1cc(C(=O)Nc2cncc(Cl)n2)ccn1" ; pIC50 = < 3.00

----------
assaySummary: Metabolic stability in human liver microsomes assessed as half life at 3 uM incubated for 45 mins by HPLC-MS analysis
Assay type: ADME, Microsome
The following molecules are listed with their measured half-life at 3 µM values.
Provide only the numeric value, understood in h.

{"smilesNotation": "O=C(Nc1ccc(C(=O)O)c(O)c1)c1ccc2ccccc2n1", "half-life at 3 µM (h)": 10.5}

Now consider a different molecule.
Entry "O=C(Nc1ccc2c(c1)OCOC2=O)c1ccc2ccccc2n1" ; half-life at 3 µM = 0.183

----------
assaySummary: Cytotoxicity against human HepG2 cells assessed as inhibition of cell viability
Type: toxicity, cell-based
The following molecules are listed with their measured IC50 values.

Solved cases (4 shown):
{"smilesNotation": "COc1ccnc(C(=O)Nc2ccc(C(=O)O)c(O)c2)c1", "measured": "> 1000 µM"}
{"smilesNotation": "Nc1ccc(C(=O)O)cc1", "measured": "> 1000 µM"}
{"smilesNotation": "O=C(Nc1cnccn1)c1ccc(C(F)(F)F)cn1", "measured": "> 146 µM"}
{"smilesNotation": "Nc1ccc(C(=O)O)c(O)c1", "measured": "> 1270 µM"}

Entry "O=C(Nc1ccc2c(c1)OCOC2=O)c1ccc2ccccc2n1" ; IC50 = > 25 µM

Entry "O=C(Nc1ccc(C(=O)O)c(O)c1)c1ccccn1" ; IC50 = > 1000 µM

----------
The following molecules are listed with their measured IC50 values.
assaySummary: Cytotoxicity against human HepG2 cells assessed as inhibition of cell viability
Assay type: toxicity, cell-based

Solved cases (10 shown):
{"molecule": "O=C(Nc1ccc(C(=O)O)c(O)c1)c1ccc2ccccc2n1", "IC50": "> 1000 µM"}
{"molecule": "O=C(Nc1ccc(C(=O)O)c(O)c1)c1ccncc1", "IC50": "> 1000 µM"}
{"molecule": "COc1ccnc(C(=O)Nc2cnccn2)c1", "IC50": "> 250 µM"}
{"molecule": "O=C(Nc1cncc(Cl)n1)c1ccc2ccccc2n1", "IC50": "> 25 µM"}
{"molecule": "Cc1cc(C(=O)Nc2cnccn2)ccn1", "IC50": "> 1000 µM"}
{"molecule": "Nc1cnccn1", "IC50": "> 1000 µM"}
{"molecule": "COc1ccnc(C(=O)Nc2cncc(Cl)n2)c1", "IC50": "> 500 µM"}
{"molecule": "NC(=O)c1cnccn1 [PYRAZINAMIDE]", "IC50": "> 1000 µM"}
{"molecule": "O=C(Nc1cnccn1)c1ccccn1", "IC50": "> 1000 µM"}
{"molecule": "O=C(Nc1cnccn1)c1ccncc1", "IC50": "> 1000 µM"}

Entry "O=C(O)c1ccc(NC(=O)c2ccc3ccccc3n2)cc1" ; IC50 = > 50 µM

Entry "O=C(O)c1ccc(NC(=O)c2cccc(Cl)n2)cc1" ; IC50 = > 250 µM

Entry "Cc1cc(C(=O)Nc2ccc(C(=O)O)c(O)c2)cc(O)n1" ; IC50 = > 1000 µM

Entry "O=C(Nc1ccc(C(=O)O)c(O)c1)c1cccc(C(F)(F)F)n1" ; IC50 = > 163 µM

Entry "Cc1cc(C(=O)Nc2ccc(C(=O)O)c(O)c2)ccn1" ; IC50 = > 1000 µM

Entry "O=C(Nc1cncc(Cl)n1)c1ccc(Cl)nc1" ; IC50 = > 500 µM

Entry "O=C(Nc1cnccn1)c1ccc(Cl)nc1" ; IC50 = > 1000 µM

Entry "O=C(Nc1cnccn1)c1cccc(Cl)n1" ; IC50 = > 250 µM

Entry "O=C(Nc1ccc(C(=O)O)c(O)c1)c1ccc(Cl)nc1" ; IC50 = > 1000 µM

Entry "Nc1cncc(Cl)n1" ; IC50 = > 1000 µM
